B1: KCNG1 (parent)
chain: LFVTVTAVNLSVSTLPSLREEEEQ

Variants of: B1
method-description: protein stability index of a GFP-peptide fusion (GPS, HEK-293T) (PSI 1-6); higher = more stable;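 also: lentivirally expressed fusions sorted by FACS into six bins by GFP to DsRed ratio, PSI derived from sequencing read proportions per bin multiplied by bin number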
condition-summary: c terminus: a fixed tail appended
Below, each of the variants is paired with its reported protein stability index value.
Just the number, please, no unit after it.

Here is how some variants turned out for protein stability index.
variant-id	val
L1H	3.62
V5L	2.2
E20F	3.08
L1F	1.95

Let us examine a further case.
Exam item: Quick check: protein stability index of L1M ?
Marked response: 1.98

Sourced from the supplement of paper PMC10567573
